- Test system: CCRF-CEM leukemia
- experiment.description: NCI-60 one-dose screen, 48 h (100 = growth as untreated, 0 = no growth, -100 = all killed)
- setup.conditions: 10 µM unless noted
This is part of a sample that, as a whole, favours compounds with a hit. Of some 83,000 tested, about 20% had one in any assay.
assay.metric: growth (%)

1. CC[C@]12CN3CCc4c([nH]c5ccccc45)[C@@](C(=O)OC)(c4cc5c(cc4OC)N(C)[C@H]4[C@@](O)(C(=O)OC)[C@H](OC(C)=O)[C@]6(CC)C=CCN7CC[C@]54[C@@H]76)CC(C3)[C@H]1O2 (some centres undefined) : 5.37
2. O=C(/C=C/c1ccc(F)cc1)Nc1ncc(Cc2ccc(F)cc2)s1 : 34
3. Cc1ccc(Nc2nc(-c3cc(O)c(C)c(C)c3O)cs2)cc1 : 14.8
4. COc1ccc(-c2ccccc2)cc1-c1c(Nc2cc(Cl)cc(Cl)c2O)c(=O)c1=O : 19.5

// data source = PubChem BioAssay (NCI)
